Values from patent US6608073B1

Test: Plasma levels of codeine in rats after intravenous or intranasal administration (HPLC)
Settings: rat, plasma, iv, 10 mg/kg
endpoint label: concentration at 20 min (ng/mL)

{"compound": "COc1ccc2c3c1O[C@H]1[C@@H](O)C=C[C@H]4[C@@H](C2)N(C)CC[C@@]341 [Codeine]", "display unit": "ng/mL", "numeric value": 2040}

* * *

Assay: Plasma levels of codeine in rats after intravenous or intranasal administration (HPLC)
Conditions: rat, plasma, other: intranasal, 5 mg/kg
endpoint label: concentration at 2 min (ng/mL)

{"molecule": "COc1ccc2c3c1O[C@H]1[C@@H](O)C=C[C@H]4[C@@H](C2)N(C)CC[C@@]341", "display unit": "ng/mL", "numeric value": 840}
